These data points were gathered from paper PMC9911399.

- tested-target: T1, RBFOX1 RRM RbFoxmut (Fox-RRM*) (Homo sapiens, UniProt Q9NWB1 109-208, R118D;E147R;N151S;E152T)
- T1 sequence: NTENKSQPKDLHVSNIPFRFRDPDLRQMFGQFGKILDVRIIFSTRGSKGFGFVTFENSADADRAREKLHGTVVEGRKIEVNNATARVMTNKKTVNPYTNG
- protocol-notes: EMSA; HiTS-Eq, 1 nM pool, 10 min; buffer printed only for the single-RNA assays: 10 mM Tris pH 7.5, 150 mM NaCl, 3.4 mM EDTA, 0.001% NP-40, 30 C
- settings: tags: His6 N-terminal (pET28a); label: 5' 32P
In all, about 16,000 sequences were measured (“ka relative to ugcaugu”: median about 0.096, highest 2% from about 0.35 on). For the sample, the highest values were picked, then their nearest neighbours and some sequences at random.
metric-name: binding signal

Some binders with known binding signal results, for comparison:
UGUCUCG (DNA:RNA) RNA: GGGAGACCGGAAUUCAGAUUGUCCUGUCUCGUUAAAUCCCGUCGUAGCCACCA DNA 1: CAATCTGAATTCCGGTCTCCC DNA 2: TGGTGGCTACGACGGGATT :: 0.32 KA relative to UGCAUGU
UAGGGUG (DNA:RNA) RNA: GGGAGACCGGAAUUCAGAUUGUCCUAGGGUGUUAAAUCCCGUCGUAGCCACCA DNA 1: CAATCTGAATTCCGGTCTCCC DNA 2: TGGTGGCTACGACGGGATT :: 0.149 KA relative to UGCAUGU
GGACUAG (DNA:RNA) RNA: GGGAGACCGGAAUUCAGAUUGUCCGGACUAGUUAAAUCCCGUCGUAGCCACCA DNA 1: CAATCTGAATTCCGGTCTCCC DNA 2: TGGTGGCTACGACGGGATT :: 0.0756 KA relative to UGCAUGU
ACGGCGA (DNA:RNA) RNA: GGGAGACCGGAAUUCAGAUUGUCCACGGCGAUUAAAUCCCGUCGUAGCCACCA DNA 1: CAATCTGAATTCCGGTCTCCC DNA 2: TGGTGGCTACGACGGGATT :: 0.1 KA relative to UGCAUGU
AAAUCUA (DNA:RNA) RNA: GGGAGACCGGAAUUCAGAUUGUCCAAAUCUAUUAAAUCCCGUCGUAGCCACCA DNA 1: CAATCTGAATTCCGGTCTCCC DNA 2: TGGTGGCTACGACGGGATT :: 0.088 KA relative to UGCAUGU

q: Find the recorded binding signal belonging to CCUUUUU (DNA:RNA) RNA: GGGAGACCGGAAUUCAGAUUGUCCCCUUUUUUUAAAUCCCGUCGUAGCCACCA DNA 1: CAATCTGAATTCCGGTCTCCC DNA 2: TGGTGGCTACGACGGGATT and report it.
a: 0.0758 KA relative to UGCAUGU

q: Find the recorded binding signal belonging to AAACGGC (DNA:RNA) RNA: GGGAGACCGGAAUUCAGAUUGUCCAAACGGCUUAAAUCCCGUCGUAGCCACCA DNA 1: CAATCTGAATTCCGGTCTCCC DNA 2: TGGTGGCTACGACGGGATT and report it.
a: 0.085 KA relative to UGCAUGU

q: Find the recorded binding signal belonging to GAUGAUU (DNA:RNA) RNA: GGGAGACCGGAAUUCAGAUUGUCCGAUGAUUUUAAAUCCCGUCGUAGCCACCA DNA 1: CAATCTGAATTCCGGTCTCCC DNA 2: TGGTGGCTACGACGGGATT and report it.
a: 0.084 KA relative to UGCAUGU

q: Find the recorded binding signal belonging to UUGUUCU (DNA:RNA) RNA: GGGAGACCGGAAUUCAGAUUGUCCUUGUUCUUUAAAUCCCGUCGUAGCCACCA DNA 1: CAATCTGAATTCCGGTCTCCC DNA 2: TGGTGGCTACGACGGGATT and report it.
a: 0.113 KA relative to UGCAUGU
